B1: Membrane-associated guanylate kinase, WW and PDZ domain-containing protein 2, residues 601 to 682; numbered along this chain, Q86UL8 (parent)
chain: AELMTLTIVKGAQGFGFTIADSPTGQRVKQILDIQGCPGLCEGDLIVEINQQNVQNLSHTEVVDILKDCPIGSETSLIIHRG

variants of: B1; assay: abundance fitness (aPCA) (normalised: wild type 0, dead -1); higher = more abundant; growth selection in yeast, the domain comes from the species named; settings: Homo sapiens
Experimental endpoint: abundance fitness

D64S 0.013
T75C -0.331
T24R 0.007

Give measured abundance fitness for every item shown.
1. G43L
2. S58C

Key:
1. 0
2. 0.052
